measurement_kind: melting point

CCOC(=O)c1c(NC(=O)CCl)sc(C)c1CC
97 to 99 °C
C=CCn1cc(C(=O)O)c2ccccc21
159 to 161 °C
CCc1cccc2c(CC(=O)O)c[nH]c12
175 to 177 °C
CC(C)(C)c1ccc(Oc2ccc(C(=O)O)cn2)cc1
143 to 145 °C
N#Cc1ccc(NC(=O)OCC(F)(F)F)cc1
143 to 145 °C
CCOC(=O)CNCC(N)=O
70 to 72 °C
CC(Cl)C(=O)NC(=O)NC1CC1 (stereo not drawn)
88 to 90 °C
O=C(O)C1CCN(S(=O)(=O)c2cc(F)ccc2F)CC1
149 to 151 °C

Dear colleague, could you please provide melting point for the compounds listed below?
1. CSc1nc(Cl)ccc1C(=O)O
2. CC(C)NC(=O)CC1(C(=O)O)CCCC1
3. O=C(O)C(=O)c1cnn(-c2ccccc2)c1
4. NC(=S)C(NC(=O)c1ccccc1)C1CC1 (stereo not drawn)
5. CC1(C)NC(=O)N(CC(=O)O)C1=O

1. 189 to 191 °C
2. 139 to 141 °C
3. 168 to 170 °C
4. 199 to 201 °C
5. 167 to 169 °C

* * *

measurement_kind: melting point

The examples below pair each entry with its known result.
CCCC(=O)Nc1ccc(CN)cc1
85 to 87 °C
Cc1ccc(S(=O)(=O)NC(C)(C)C)cc1N
124 to 126 °C
O=C(O)C1CCCN(C(=O)c2ccccc2)C1 (centres undefined)
189 to 191 °C

Dear colleague, could you please provide melting point for the molecules listed below?
1. COC(=O)c1ccc(F)c(S(=O)(=O)Cl)c1
2. Cc1cc(N)n(-c2ccccn2)n1
3. CC(C)c1sc(NC(=O)CCl)nc1-c1ccccc1
4. COc1ccc(N)c2cccnc12
5. CC(NC(=O)CCC(=O)O)C(=O)c1ccc(Br)cc1 (centres undefined)
6. COc1ccc(OC)c2c(O)c(C(=O)O)cnc12
7. COc1ccccc1C(C)N(C)C(=O)CCl (centres undefined)

1. 48 to 50 °C
2. 102 to 104 °C
3. 136 to 138 °C
4. 155 to 157 °C
5. 136 to 138 °C
6. 272 to 274 °C
7. 66 to 68 °C

Dear colleague, could you please provide melting point for the molecules listed below?
1. Nc1sc2c(c1C(=O)c1cccc(Cl)c1)CCC2
2. Nc1ccn(Cc2ncccn2)n1

["129 to 131 °C", "100 to 102 °C"]

Dear colleague, could you please provide melting point for the molecules listed below?
1. O=C(CCl)NCc1cnn(-c2ccccc2)c1
2. O=C(Nc1ccc(Cl)cn1)C1CCCNC1 (centres undefined)
3. COC(=O)CCNC(=O)c1ccc(N)cc1

1: 110 to 112 °C; 2: 156 to 158 °C; 3: 99 to 101 °C

Dear colleague, could you please provide melting point for the molecules listed below?
1. Cc1nc(C(=O)O)c(C)s1
2. CCOc1cc(C=O)ccc1OCC(F)(F)F
3. O=C(CCN1CCOCC1)c1cc2ccccc2o1
4. Sc1ccc(Cl)cn1
5. O=C(O)c1csc(-c2cc(Br)cs2)n1
6. Nc1cc(S(=O)(=O)Nc2ccccc2Cl)ccc1O
7. O=C(O)c1cnn(-c2ccccc2F)c1

1. 172 to 174 °C
2. 38 to 40 °C
3. 53 to 55 °C
4. 214 to 216 °C
5. 229 to 231 °C
6. 195 to 197 °C
7. 160 to 162 °C

Dear colleague, could you please provide melting point for the molecules listed below?
1. COC(=O)NC(=O)CCl
2. O=C(O)C(=O)NCc1ccc(F)cc1
3. COC(=O)c1cccc(CC(=O)O)c1
4. O=C(O)CCCc1nc2ccccc2s1
5. Cc1nc(CO)oc1C

147 to 151 °C
134 to 136 °C
74 to 76 °C
148 to 150 °C
59 to 61 °C

Dear colleague, could you please provide melting point for the molecules listed below?
1. Cc1cccc(C(N)CC(=O)O)c1C (centres undefined)
2. N#Cc1cccc(/C=C/C(=O)O)c1

1: 211 to 213 °C; 2: 246 to 248 °C

* * *

Would you mind telling me the reported melting point of each entry?

The examples below pair each entry with its known result.
CCN(CC)S(=O)(=O)c1ccc(N)c(N)c1
124 to 126 °C
CC(=O)c1ccc(NC(=O)NC(C)C)cc1
147 to 149 °C
CC(C)(C)OC(=O)Nc1ccc(C(=O)O)c(O)c1
158 to 160 °C
O=C(CO)Nc1ccccc1
79 to 81 °C
CSc1ccc(C=NO)cc1
114 to 116 °C
CCOC(=O)c1sc(-c2ccc(OC)c(OC)c2)cc1N
120 to 122 °C

Dear colleague, could you please provide melting point for the molecules listed below?
1. O=C(O)C1CCCN(C(=O)Nc2ccccc2)C1 (centres undefined)
2. O=C(O)CSc1nnc(-c2ccco2)o1

1: 163 to 165 °C; 2: 152 to 155 °C

Dear colleague, could you please provide melting point for the molecules listed below?
1. CC(C)c1cc(O)ncn1
2. NC(=O)COc1ccc(C=O)cc1
3. Cc1[nH]c(=O)[nH]c(=O)c1CO
4. Cc1cc(C)n(-c2ccccc2N)n1
5. CCNC(=O)N1CCc2ccc(N)cc21
6. CC(NC(N)=S)c1ccccc1 (centres undefined)

1. 131 to 133 °C
2. 134 to 136 °C
3. 326 to 328 °C
4. 81 to 83 °C
5. 134 to 136 °C
6. 94 to 96 °C

* * *

Would you mind telling me the reported melting point of each entry?

O=C(O)c1cnn2cc(Br)cnc12
199 to 201 °C
CS(=O)(=O)N1CCc2cc(C(=O)CCl)ccc21
137 to 139 °C
CC(C)(C)OC(=O)c1nnsc1N
134 to 136 °C

Dear colleague, could you please provide melting point for the molecules listed below?
1. CCOC(=O)c1cnn(-c2ccc(OCC)cc2)c1N
2. O=[N+]([O-])c1sc(Cl)nc1Cl
3. ClCc1cn(-c2ccc(Cl)c(Cl)c2)nn1
4. O=C(O)COc1ccc(N2CCCC2=O)cc1

["119 to 121 °C", "38 to 40 °C", "138 to 140 °C", "150 to 155 °C"]

* * *

Would you mind telling me the reported melting point of each entry?

Dear colleague, could you please provide melting point for the molecules listed below?
1. COc1cc(C=O)ccc1OC(=O)c1cccs1
2. COC(=O)c1c(Cl)c([N+](=O)[O-])cc([N+](=O)[O-])c1Cl
3. Nc1nc2ncccn2n1
4. Clc1nccc(N2CCOCC2)n1
5. NC(=S)C1(NC(=O)c2ccccc2)CCCC1
6. CC(CC(=N)N)NC(=O)OC(C)(C)C (configuration not stated)
7. O=C(O)Cn1ncc(=O)c2ccccc21

1. 64 to 69 °C
2. 97 to 99 °C
3. 185 to 187 °C
4. 111 to 113 °C
5. 189 to 191 °C
6. 91 to 93 °C
7. 120 to 122 °C

* * *

measurement_kind: melting point

The examples below pair each entry with its known result.
O=C(O)c1nn(-c2cccc(Cl)c2)cc1O
235 to 237 °C
COC(=O)C1=NN(c2ccccc2)C(c2ccccc2)C1 (configuration not stated)
125 to 127 °C
Cc1cnc2c(c1)NC(=O)CN2
249 to 251 °C
O=C(O)c1c(Cl)ccc(S(=O)(=O)Cl)c1Cl
168 to 170 °C
Cc1ccc(/C=C/C(=O)O)s1
160 to 162 °C

Dear colleague, could you please provide melting point for the molecules listed below?
1. Cc1ccc(Nc2nc(N)nc(CCl)n2)cc1
2. CNc1cc(F)ccc1[N+](=O)[O-]
3. Cc1cc(C(=O)CCl)ccc1F

["158 to 160 °C", "110 to 112 °C", "33 to 35 °C"]

* * *

Would you mind telling me the reported melting point of each entry?

The examples below pair each entry with its known result.
NCC(O)c1cccs1 (stereo unspecified)
81 to 83 °C
NC(=O)C1CCN(c2ccc(N)cc2)CC1
205 to 207 °C

Dear colleague, could you please provide melting point for the compounds listed below?
1. O=C(O)c1cc(N2CCOC2=O)ccc1F
2. O=C1COc2c(cccc2C(=O)O)N1
3. c1cc(-c2ccsc2)n[nH]1
4. Clc1ccc2cccc(Br)c2n1
5. Cc1nn(Cc2ccccc2)c(Cl)c1CCl
6. O=S(=O)(Cl)c1c(Cl)nc2ccccn12

["232 to 234 °C", "311 to 313 °C", "110 to 112 °C", "112 to 114 °C", "53 to 55 °C", "101 to 103 °C"]

Dear colleague, could you please provide melting point for the compounds listed below?
1. O=[N+]([O-])c1ccc(-c2nc(CCl)co2)cc1
2. COc1ccccc1NC(=O)c1ccc(NC(=O)CCCl)cc1
3. O=c1[nH]c(=O)c2cc(S(=O)(=O)Cl)cnc2[nH]1
4. O=C(CCl)NC1CCS(=O)(=O)C1 (stereo unspecified)
5. Cc1nnnn1C(Cc1cccc(F)c1)C(=O)O (stereo unspecified)
6. CC(=O)CSc1ccccc1C(=O)O
7. Fc1ccc(-c2cnc(C3CCNCC3)[nH]2)cc1F
8. CNCc1nc2ccccc2s1

119 to 121 °C
193 to 195 °C
311 to 313 °C
89 to 98 °C
158 to 160 °C
158 to 160 °C
187 to 189 °C
30 to 34 °C
